System: SB.msgc-1
Test: AC50 for growth inhibition (viability) (log10 M); higher = less potent
Conditions: SB.msgc-1 (sporadic gastric cancer)

| MOLECULE | SUBJECT_OF_TEST | AC50 for growth inhibition (log10 M) |
| --- | --- | --- |
| O=C(/C=C/c1cccnc1)NCCCCC1CCN(C(=O)c2ccccc2)CC1 | SB.msgc-1 | -6.08 |
| COc1ccc2[nH]cc(CCNC(C)=O)c2c1 | SB.msgc-1 | -5.83 |
| CCOC(=O)\C1=C\[C@]2(CC)CCCN3CCC4=C([C@H]23)[N]1C5=C4C=CC=C5 | SB.msgc-1 | -4.63 |
| CCN(CC)CCOC1=CC=C(NC2=NC=C3\C=C(/C(=O)N(C)C3=N2)C4=C(Cl)C=CC=C4Cl)C=C1 | SB.msgc-1 | -5.98 |
| CCN(CC)CCCC(C)Nc1ccnc2cc(Cl)ccc12 (centres undefined) | SB.msgc-1 | -4.73 |
| CN(C)CCN(Cc1ccc(Cl)cc1)c1ccccn1.Cl | SB.msgc-1 | -4.68 |
| CC(=O)SCC(Cc1ccccc1)C(=O)NCC(=O)OCc1ccccc1 (centres undefined) | SB.msgc-1 | -6.23 |
| CC1(C)Cc2c(sc(NC(=S)NC(=O)c3ccccc3)c2C(=O)O)CO1 | SB.msgc-1 | -4.53 |
| Cc1ccc(C(N)=O)cc1Nc1nccc(-c2cn(C(C)C)c3cnccc23)n1 | SB.msgc-1 | -5.28 |

---

Reported AC50 for growth inhibition (log10 M) values for the following molecules.
Test system: SB.msgc-1
Experiment: AC50 for growth inhibition (viability) (log10 M); higher = less potent
Details: SB.msgc-1 (sporadic gastric cancer)
Counter-ions that a name gives are not always drawn.

| MOLECULE | AC50 for growth inhibition (log10 M) |
| --- | --- |
| O=C(c1ccc(Nc2nccc(-c3cc4ccccc4s3)n2)cc1)N1CCC(N2CCCC2)CC1 | -4.88 |
| CC(C)CC(=O)Nc1n[nH]c2c1CN(C(=O)C1CCN(C)CC1)C2(C)C | -5.83 |
| CCNC(=O)Nc1ccc(Oc2ncnc(N)c2/C=N/OC)cc1Cl | -4.88 |
| CC[C@]1(O)C[C@@H]2CN(CCc3c([nH]c4ccccc34)[C@@](C(=O)OC)(c3cc4c(cc3OC)N(C)[C@H]3[C@@](O)(C(N)=O)[C@H](O)[C@]5(CC)C=CCN6CC[C@]43[C@@H]65)C2)C1 [Vindesine sulfate] | -8.68 |
| C[C@H](NC(=O)c1sccc1OCc1ccc(Cl)cc1)c1ccccc1 | -4.73 |
| CC1COC2=C3N1\C=C(C(O)=O)/C(=O)C3=CC(=C2N4CCN(C)CC4)F (stereo not given) | -4.73 |
| OC1=CC=C(C=C1)\C2=C\C(=O)C3=C(O2)C=C(O)C=C3O | -4.83 |
| CC[S+](=O)([O-])N1CC(CC#N)(n2cc(-c3ncnc4[nH]ccc34)cn2)C1 | -4.63 |
| COc1cc(Nc2c(C#N)cnc3cc(OCCCN4CCN(C)CC4)c(OC)cc23)c(Cl)cc1Cl | -5.58 |
| CC(=O)N1CCN(c2ccc(OC[C@H]3CO[C@](Cn4ccnc4)(c4ccc(Cl)cc4Cl)O3)cc2)CC1 | -4.83 |
| O=C1c2c(O)ccc(O)c2C(=O)c2c(NCCNCCO)ccc(NCCNCCO)c21 | -5.88 |
| COc1cccc2c1C(=O)c1c(O)c3c(c(O)c1C2=O)C[C@@](O)(C(=O)CO)C[C@@H]3O[C@H]1C[C@H](N)[C@H](O[C@H]2CCCCO2)[C@H](C)O1 | -5.68 |
| C=C[C@H]1CN2CCC1C[C@H]2[C@H](O)c1ccnc2ccccc12 (stereo not given in full) | -4.98 |
| CC[C@H](NC1=C2N=C[NH]C2=NC=N1)C/3=N/C4=C(C(=CC=C4)F)C(=O)N3C5=CC=CC=C5 | -5.43 |
| CC[C@@]1(O)C[C@H](O[C@H]2C[C@H](N(C)C)[C@H](O[C@H]3C[C@H](O)[C@H](O[C@H]4CCC(=O)[C@H](C)O4)[C@H](C)O3)[C@H](C)O2)c2c(cc3c(c2O)C(=O)c2c(O)cccc2C3=O)[C@H]1C(=O)OC | -6.28 |
| C\C1=C\N([C@H]2C[C@H](N=[N+]=[N-])[C@@H](CO)O2)C(=O)NC1=O | -4.58 |
| Oc1ccc(C2CCN(c3ccnc4ccccc34)CC2)cc1O | -4.63 |
| Cc1cccc(Nc2nc(N[C@@H]3CCCC[C@@H]3N)ncc2C(N)=O)c1 | -4.63 |
| N#Cc1c(NC(=O)c2cccc3ccccc23)sc2c1CCCC2 | -5.98 |
| Cc1coc2c1C(=O)C(=O)c1c-2ccc2c1CCCC2(C)C | -4.68 |
| O=C1NC(=O)/C(=C/c2ccc3nccnc3c2)S1 | -4.89 |
| Cc1nnc(N[S+](=O)([O-])c2ccc(N)cc2)s1 | -5.43 |
| OC[C@H]1O[C@H](C[C@@H]1O)N2\C=C(F)/C(=O)NC2=O | -6.48 |
| CC(C(=O)O)c1ccc2c(c1)CC(=O)c1ccccc1S2 (stereo not given) | -5.13 |
| C[C@@H]1C/C=C/C=C/C=C/C=C/[C@@H](O[C@@H]2O[C@H](C)[C@@H](O)[C@H](N)[C@@H]2O)C[C@@H]2O[C@](O)(C[C@@H](O)C[C@@H]3O[C@H]3/C=C/C(=O)O1)C[C@H](O)[C@H]2C(=O)O | -5.23 |

---

Reported viability values for the following molecules.
Tested on: SB.msgc-1
Test: viability at highest tested concentration (MAXR) relative to DMSO; higher = less cytotoxic
Details: SB.msgc-1 (sporadic gastric cancer)
Where a name gives a salt, the structure may show the parent alone.

| MOLECULE | UNIT_ABBREVIATION | viability |
| --- | --- | --- |
| ClC1=C(N\C2=N\CCN2)C3=NSN=C3C=C1 [Tizanidine hydrochloride] (top concentration 46.0829 µM) | % | 132 |
| CC(=O)O[C@H]1C(=O)[C@]2(C)[C@@H](O)C[C@H]3OC[C@@]3(OC(C)=O)C2[C@H](OC(=O)C4=CC=CC=C4)[C@]5(O)C[C@H](OC(=O)[C@H](O)[C@@H](NC(=O)C6=CC=CC=C6)C7=CC=CC=C7)\C(=C1/C5(C)C)C (some centres not stated) [Paclitaxel] (top concentration 46.0829 µM) | % | 38.5 |
| CC(=O)O.Cc1c(-c2ccc(O)cc2)n(Cc2ccc(OCCN3CCCCCC3)cc2)c2ccc(O)cc12 [Bazedoxifene] (top concentration 46.0829 µM) | % | 61.8 |
| C[C@]12CC[C@@H]3c4ccc(O)cc4CC[C@H]3[C@@H]1CC[C@@H]2O [Estradiol] (top concentration 46.0829 µM) | % | 20.5 |
| CCN(C)C(=O)Oc1cccc([C@H](C)N(C)C)c1 [Rivastigmine tartrate] (top concentration 46.0829 µM) | % | 125 |
| C/C=C/C[C@@H](C)C(=O)[C@H]1C(=O)N[C@@H](C(C)C)C(=O)N(C)CC(=O)N(C)[C@@H](CC(C)C)C(=O)N[C@@H](C(C)C)C(=O)N(C)[C@@H](CC(C)C)C(=O)N[C@@H](C)C(=O)N[C@H](C)C(=O)N(C)[C@@H](CC(C)C)C(=O)N(C)[C@@H](CC(C)C)C(=O)N(C)[C@@H](C(C)C)C(=O)N1C [Valspodar] (top concentration 46.0829 µM) | % | 35.1 |
| Fc1ccc([C@@H]2CCNC[C@H]2COc2ccc3c(c2)OCO3)cc1 [Paroxetine] (top concentration 46.0829 µM) | % | 44.6 |
| Cn1cnc2c(F)c(Nc3ccc(Br)cc3Cl)c(C(=O)NOCCO)cc21 [Selumetinib] (top concentration 46.0829 µM) | % | 24.2 |
| COc1cc(C(=O)NS(=O)(=O)c2ccccc2C)ccc1Cc1cn(C)c2ccc(NC(=O)OC3CCCC3)cc12 [Zafirlukast] (top concentration 46.0829 µM) | % | 1.71 |
| C/C(=C\c1csc(C)n1)[C@@H]1C[C@@H]2O[C@@H]2CCC[C@H](C)[C@H](O)[C@@H](C)C(=O)C(C)(C)[C@@H](O)CC(=O)O1 [Epothilone A] (top concentration 46.0829 µM) | % | 42.9 |
| COc1cccc2cc(-c3nc(C4CCC(C(=O)O)CC4)n4ncnc(N)c34)[nH]c12 (configuration not stated) [OSI-027] (top concentration 46.0829 µM) | % | 46.1 |
| CO[C@H]1/C=C/O[C@@]2(C)Oc3c(C)c(O)c4c(O)c(c(/C=N/N5CCN(C)CC5)c(O)c4c3C2=O)NC(=O)/C(C)=C\C=C\[C@H](C)[C@H](O)[C@@H](C)[C@@H](O)[C@@H](C)[C@H](OC(C)=O)[C@@H]1C [Rifampicin] (top concentration 11.0599 µM) | % | 65.9 |
